Biological target: VEGF165 (Homo sapiens, UniProt P15692-4 P15692-4:27-191)
Sequence (P15692 other isoform, or with tags, fused parts or gaps): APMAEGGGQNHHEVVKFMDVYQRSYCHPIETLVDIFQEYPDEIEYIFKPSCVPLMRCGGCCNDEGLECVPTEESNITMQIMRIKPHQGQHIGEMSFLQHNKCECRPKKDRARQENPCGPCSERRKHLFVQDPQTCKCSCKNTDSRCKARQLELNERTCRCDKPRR
Assay: filter; 37 C
Settings: tags: carrier-free, Sf 21 insect cell expressed, R & D Systems; chain copies: 2 (inferred)
VALUE_KIND: log10(Kd) (log10 of the value in pM)
All values: base-10 log of Kd in pM.

Look over these answered cases.
BINDER	log10(Kd)
VP40.41 (ssRNA, 2'-F pyrimidines) RNA: GGGAGGACGAUGCGGCAAAUUCAAGGUCGAGUUAUGCGUAGAUGUGGCUCCUGUGCAGACGACUCGCCCGA	4.04
VP30.54 (ssRNA, 2'-F pyrimidines) RNA: GGGAGGACGAUGCGGAAGAAACGGAAGAAUUGGAGACACGCUCGUCAGACGACUCGCCCGA	1.00

Q) For the binder VP30.35 (ssRNA, 2'-F pyrimidines) RNA: GGGAGGACGAUGCGGUGAAUGAGCUGACGACCCUGAAUUGCUCGUCAGACGACUCGCCCGA , what log10(Kd) is on record?
A) 0.78

Q) Can you check VP40.53 (ssRNA, 2'-F pyrimidines) RNA: GGGAGGACGAUGCGGUGAGAGAAACGGAAGAAUUGGAUACGAUACUCAUCGCGCUCAGACGACUCGCCCGA next?
A) 0.90

Q) What do we get for VT30.10 (ssRNA, 2'-F pyrimidines) RNA: GGGAGGACGAUGCGGAACGGAAGAAUUGGAUACGUAGCAUGCGUCAGACGACUCGCCCGA ?
A) 0.30
